subjectOfTest: Recombinant human FcγRIIIa-V158 (human, UniProt P08637 17-208)
Sequence (P08637 17-208 F176V): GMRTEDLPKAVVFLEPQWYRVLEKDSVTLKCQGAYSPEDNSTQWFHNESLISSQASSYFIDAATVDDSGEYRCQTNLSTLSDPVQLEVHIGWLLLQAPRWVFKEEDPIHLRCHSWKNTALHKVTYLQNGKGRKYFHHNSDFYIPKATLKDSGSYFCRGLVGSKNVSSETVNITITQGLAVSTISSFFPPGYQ
testDetails: SPR; -kif
measurementLabel: Kd (nM)
The reply should contain only the number, in nM.

Problem: Give the value of Kd reported for the following: human IgG1 antibody specific for protein 4, S239D/I332E + T256D/T307Q, -Kif (antibody) ASTKGPSVFPLAPSSKSTSGGTAALGCLVKDYFPEPVTVSWNSGALTSGVHTFPAVLQSSGLYSLSSVVTVPSSSLGTQTYICNVNHKPSNTKVDKKVEPKSCDKTHTCPPCPAPELLGGPDVFLFPPKPKDTLMISRDPEVTCVVVDVSHEDPEVKFNWYVDGVEVHNAKTKPREEQYNSTYRVVSVLQVLHQDWLNGKEYKCKVSNKALPAPEEKTISKAKGQPREPQVYTLPPSRDELTKNQVSLTCLVKGFYPSDIAVEWESNGQPENNYKTTPPVLDSDGSFFLYSKLTVDKSRWQQGNVFSCSVMHEALHNHYTQKSLSLSPGK
Result: 12.3
